# procedure-summary: label from the status in PepcDB records
result-type: protein production

Please review the entries below; each comes with its answer.
[
  {
    "input-sequence": "GSPLLAPAFEPSLGPPPEGAPPTIEAWFSFRSPYSWLFMPRIRHLAQAYGATLELRPILPMVMRGLAVPRIKTIYITLDCKREAERVGLPFGRIVDPVGAGAERALAVLHHAMALGLGEQFAELGLKAAFADGIALAEDEGLYGVARRAGLTDAQTAAALADDSWRQRAETNRAALLEAGLWGAPTFRITGHQAHWGQDRLYMLEEDLRAAMQGAAAPR",
    "reported-value": "failed"
  },
  {
    "input-sequence": "MGHHHHHHSHMSFVECPYHSPAERLVAEADEGGPSAITGMGLCFRCLLFSFSGRSGVEGGRVDLNVFGSLGLQPWIGSSRCWGGPCSSALRCGWFSSWPPPSKSAIPIGGGSRGAGRVSRWPPPHWLEAWRVSPRPL",
    "reported-value": "failed"
  },
  {
    "input-sequence": "MNGFIPIIASIAISLPLLIFGSHSDVKKRSINSFTFLPIFILALAFYILDKDVVMSIVTILSTVAVFIKPNIYVYIVLPLIIIGIGFFDTINLLTILIVGMFLLTGFGELLFGIGDIKGIVSVVLLFSSIPRFNNYIPFSIVFVFFIAVASGGALLYFVVYARLNGLKLRGLNVLYDEHEYLRNTIKYQLKDTNSGKVMIYRVPFLVPILVSTVLSLIAQLIIYASIHT",
    "reported-value": "failed"
  },
  {
    "input-sequence": "MSSQSIDDKFMSITQMKNLIHYVKKNDALSHLCIYILIITGSRFKPVQHLRYEDLNFKKSCIHLNDTKNKYSKRNVKVRIKDLEYIQSVINKHPINQNGYIFHNFINFISYSAINDVLVRFCLKYKYDKYTLKSLRHTHCSYLLAKGISIQYISKRLGHADIHTTLKIYSHLIKEFEDSENSLIEKNLNDLFSDLEHHHHHH",
    "reported-value": "failed"
  },
  {
    "input-sequence": "MSIEMKTQLGTVDVSKDVVATIAGGAAVDCYGIVGMASQKQIKDGLSELLGRENFRRGVVIREEEDEIHIDMYIIVSYGTKISEVAYNVQTKVKYQLETMLGIDVDSVNIFVQGVRVTNPLEHHHHHH",
    "reported-value": "failed"
  },
  {
    "input-sequence": "MTPQNTIARELLFLALLSTLWAASYTFIKIGVETIPPLTFIAARTLIAGLLLLVVIRLRGLRLPRDPATWRLFFVQACINSVLPFTLIAWAEQSIDAGLAVILNATTPIFTFLLTALVIRHETVSGRKLFGTIAGMTGVCLIIGVEALGGAGEAIWSQLAVLTAAFSYACAAIFSKNFKGLDPVMPAAGSLICGAVLLLPVSLIVDRPWTLSPSAASLTALVCLSVFSTALAFMIYFRLMQTLGSVGTTSQAYLRVPVGVAIGMVFLGEVPTSAMWVGLVCVIAGVLAMTLPSRRRPATQGG",
    "reported-value": "failed"
  }
]

Q. Fill in the blank: the reported protein production of `MAKGGFPGFGGNINNLVKQAQKMQRDMERVQEELKEKTVEASAGGGAVTVVATGRKDIKEITIKPEVVDPDDVEMLQDLILAAVNEALRKADEMVTAEISKITGGLGGIPGLF` is ____.
A. not failed

Q. Fill in the blank: the reported protein production of `MPFCPEEFYCRITQNIESLNNIAKIQHAANTDYLTDLANRRAFFRSAESRIKEYINKKVPYCLAMIDVDFFKKVNDTYGHDSGDQVLKVIALYMRKHFGAGLTARLGGEEFAVLLHGLDADYLHNKLDDFRREIAVSSIPAGDTSISITLSLGVVFDSEDELSKQMNEADNALYAAKENGRNQIVVFGAELDDLEHHHHHH` is ____.
A. failed

Q. Fill in the blank: the reported protein production of `MSNSSQYYTRTAQFLHWIMAIIFISAWIIGFYSGNFLNYETDGSFKGDVITLHKNIATTIIFLVMIRIFWRYTHPTPELPATMSPLMKKLAHLGHLALYVILIALPISGCFYSWSAGHPAPVLYLFNIPQLIGENPEIMAIAKPVHVYLSWFAGLMVAGHILAALKHHFIDKDNVLKSMIKQSR` is ____.
A. failed

Each recorded value in this set is attributed to a protein production outcome set (Wang et al. 2014).
